Molecular target: PmSiaT (Proteus mirabilis)
Construct: made in house
Sequence (B4EZY7 1-496): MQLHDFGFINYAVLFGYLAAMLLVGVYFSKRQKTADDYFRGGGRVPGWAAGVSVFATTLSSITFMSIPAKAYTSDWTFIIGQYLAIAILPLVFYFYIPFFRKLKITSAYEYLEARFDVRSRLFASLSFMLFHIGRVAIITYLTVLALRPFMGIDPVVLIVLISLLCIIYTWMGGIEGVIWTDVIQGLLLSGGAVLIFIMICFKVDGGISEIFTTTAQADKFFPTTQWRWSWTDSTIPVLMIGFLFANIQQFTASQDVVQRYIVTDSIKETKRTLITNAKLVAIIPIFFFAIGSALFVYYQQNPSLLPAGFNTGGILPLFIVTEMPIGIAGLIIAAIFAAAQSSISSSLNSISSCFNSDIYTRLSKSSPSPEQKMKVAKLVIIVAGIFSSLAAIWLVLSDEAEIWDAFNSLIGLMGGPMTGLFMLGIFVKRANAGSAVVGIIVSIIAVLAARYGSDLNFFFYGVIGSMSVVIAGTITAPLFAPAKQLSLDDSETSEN
Test: nanoDSF thermal shift assay, PmSiaT
Assay type: binding
Settings: PmSiaT, experiment 1, first capillary, 1.25 mM
Reported Metric: Tm 1 (°C)
Answers are plain numbers, in °C.

Sample answers from the record:
>>> df
                                   compound                study_system  display_unit  measured_number
0  CC(=O)NC1C(OCc2ccccc2)CC(O)(C(=O)O)OC1C(O)C(O)CO (centres unmarked) [Compound 3a]  PmSiaT (Proteus mirabilis)            °C             54.5
1  CSCC(O)C(O)C1OC(O)(C(=O)O)CC(O)C1NC(C)=O (centres unmarked) [Compound 8a]  PmSiaT (Proteus mirabilis)            °C             46.1
2  CC(C)(C)C(=O)NC1C(O)CC(O)(C(=O)O)OC1C(O)C(O)CO (centres unmarked) [Compound 6c]  PmSiaT (Proteus mirabilis)            °C             46.6
3  CC(=O)NC1C(O)CC(O)(C(=O)O)OC1C(O)C(O)CN=[N+]=[N-] (centres unmarked) [Compound 8g]  PmSiaT (Proteus mirabilis)            °C             46.0

Next item in the queue.
In: Which Tm 1 reading was recorded for the compound CC(=O)N[C@H]1[C@H]([C@H](O)[C@H](O)CO)OC(C(=O)O)=C[C@@H]1O [Compound 9, reference compound] ?
Out: 46.1

---

Target: PmSiaT (Proteus mirabilis)
Construct: made in house
Sequence (B4EZY7 1-496): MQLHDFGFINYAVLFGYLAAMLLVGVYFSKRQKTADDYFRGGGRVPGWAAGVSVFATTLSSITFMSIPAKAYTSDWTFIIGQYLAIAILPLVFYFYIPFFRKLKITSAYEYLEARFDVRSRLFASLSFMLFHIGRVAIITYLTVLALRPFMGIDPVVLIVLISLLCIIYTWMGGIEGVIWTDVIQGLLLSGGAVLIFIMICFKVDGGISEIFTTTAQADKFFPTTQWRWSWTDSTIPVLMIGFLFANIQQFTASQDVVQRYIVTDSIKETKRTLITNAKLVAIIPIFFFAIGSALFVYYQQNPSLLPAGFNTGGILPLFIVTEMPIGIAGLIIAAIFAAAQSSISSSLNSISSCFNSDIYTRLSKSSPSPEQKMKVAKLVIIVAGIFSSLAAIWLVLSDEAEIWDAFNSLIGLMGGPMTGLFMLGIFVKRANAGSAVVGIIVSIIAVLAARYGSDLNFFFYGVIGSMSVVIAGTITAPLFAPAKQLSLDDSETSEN
Assay: nanoDSF thermal shift assay, PmSiaT
Type: binding
Conditions: PmSiaT, three experiments, vs Neu5Ac, 1.25 mM; read-out: ΔTm average overall
Could you please report measured ΔTm at 1250 µM for the items listed next?
One number for each entry, in °C.

Compound	ΔTm at 1250 µM (°C)
CC(C)C(=O)NC1C(O)CC(O)(C(=O)O)OC1C(O)C(O)CO (stereo not shown)	-2.1
CCSCC(O)C(O)C1OC(O)(C(=O)O)CC(O)C1NC(C)=O (stereo not shown)	-3.2
CC(=O)NC1C(OCc2ccc(F)cc2)CC(O)(C(=O)O)OC1C(O)C(O)CO (stereo not shown)	4
CC(=O)N[C@H]1[C@H]([C@H](O)[C@H](O)CO)OC(O)(C(=O)O)C[C@@H]1O (stereo partly shown) [Neu5Ac, 5-N-acetyl neuraminic acid, reference compound]	0
CC(=O)NC1C(O)CC(O)(C(=O)O)OC1C(O)C(O)CBr (stereo not shown)	-1.9
CC(=O)NC1C(OCc2ccc(C#N)cc2)CC(O)(C(=O)O)OC1C(O)C(O)CO (stereo not shown)	5.2
O=C(CCl)NC1C(O)CC(O)(C(=O)O)OC1C(O)C(O)CO (stereo not shown)	0.6
CC(C)(C)C(=O)NC1C(O)CC(O)(C(=O)O)OC1C(O)C(O)CO (stereo not shown)	-2.5
[N-]=[N+]=NCC(=O)N[C@H]1[C@H]([C@H](O)[C@H](O)CO)O[C@@](O)(C(=O)O)C[C@@H]1O [Compound 6h, reference compound]	0
CC(=O)NC1C(OCc2cc(F)cc(F)c2)CC(O)(C(=O)O)OC1C(O)C(O)CO (stereo not shown)	6.8

Would you mind listing ΔTm at 1250 µM for each of the following compounds?
1. CSCC(O)C(O)C1OC(O)(C(=O)O)CC(O)C1NC(C)=O (stereo not shown)
2. CC(=O)NC1C(O)CC(O)(C(=O)O)OC1C(O)C(O)CI (stereo not shown)
3. O=C(Cc1ccccc1)NC1C(O)CC(O)(C(=O)O)OC1C(O)C(O)CO (stereo not shown)

Out:
-3.1
-2
-3.3
